Measured target: T1, RBFOX1 RRM (Homo sapiens, UniProt Q9NWB1 109-208)
T1 sequence: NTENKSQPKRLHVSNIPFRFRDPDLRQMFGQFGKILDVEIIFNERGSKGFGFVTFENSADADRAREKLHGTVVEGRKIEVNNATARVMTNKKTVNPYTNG
Experiment: EMSA; HiTS-Eq, 1 nM pool, 10 min; buffer printed only for the single-RNA assays: 10 mM Tris pH 7.5, 150 mM NaCl, 3.4 mM EDTA, 0.001% NP-40, 30 C
Condition description: tags: His6 N-terminal (pET28a); label: 5' 32P
The full ranking holds about 16,000 sequences; the median of “ka relative to ugcaugu” is about 0.0091, and the highest 2% start at about 0.032. Only a selection was taken, and the highest values are over-represented in it overall.
Attribute measured: binding signal

AGAAUGC (DNA:RNA) RNA: GGGAGACCGGAAUUCAGAUUGUCCAGAAUGCUUAAAUCCCGUCGUAGCCACCA DNA 1: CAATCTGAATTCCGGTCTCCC DNA 2: TGGTGGCTACGACGGGATT    0.022 KA relative to UGCAUGU

Query :: Determine its reported binding signal: AAGCAUC (DNA:RNA) RNA: GGGAGACCGGAAUUCAGAUUGUCCAAGCAUCUUAAAUCCCGUCGUAGCCACCA DNA 1: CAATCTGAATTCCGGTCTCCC DNA 2: TGGTGGCTACGACGGGATT
Result :: 0.0137 KA relative to UGCAUGU
